Tested on: Klebsiella pneumoniae
assay.comment: Antibacterial activity against Klebsiella pneumoniae at 100 ug after 24 hrs by agar well diffusion method
Type: functional
measurement.setup: read-out: DIZ
measurement.kind: zone of inhibition at 100 µg/disc (mm)
Unit mm implied. Number only.

Example entries and their recorded answers appear below.
# compound, measurement.kind, unit.label, reading
rows = [
    ("Cc1ccc(-c2csc(NC(=O)C3=NNCC3c3ccccc3)n2)cc1 (stereo not drawn)", "zone of inhibition at 100 µg/disc", "mm", 20),
    ("Cc1ccc(-c2c[nH]c(NC(=O)C3=NNCC3c3ccccc3)n2)cc1 (stereo not drawn)", "zone of inhibition at 100 µg/disc", "mm", 18),
    ("Cc1ccc(-c2csc(NC(=O)/C=C/c3ccccc3)n2)cc1", "zone of inhibition at 100 µg/disc", "mm", 27),
]

Fill blank: measured zone of inhibition at 100 µg/disc of the compound O=C(/C=C/c1ccccc1)Nc1nc(-c2ccccc2)cs1 is ____.
28

Fill blank: measured zone of inhibition at 100 µg/disc of the compound O=C(Nc1nc(-c2ccccc2)c[nH]1)c1c[nH]cc1-c1ccccc1 is ____.
22

Fill blank: measured zone of inhibition at 100 µg/disc of the compound O=C(/C=C/c1ccccc1)Nc1nc(-c2ccc(Cl)cc2)cs1 is ____.
35

###

System: Bacillus subtilis
assay.comment: Antibacterial activity against Bacillus subtilis at 100 ug after 24 hrs by agar well diffusion method
Type: functional
measurement.setup: read-out: DIZ
measurement.kind: zone of inhibition at 100 µg/disc
Answer with the figure and its unit, nothing else.

Example entries and their recorded answers appear below.
# molecule, zone of inhibition at 100 µg/disc
rows = [
    ("Cc1ccc(-c2c[nH]c(NC(=O)c3c[nH]cc3-c3ccccc3)n2)cc1", "19 mm"),
    ("Cc1ccc(-c2c[nH]c(NC(=O)C3=NNCC3c3ccccc3)n2)cc1 (stereo unspecified)", "16 mm"),
    ("O=C(Nc1nc(-c2ccc(Cl)cc2)c[nH]1)c1n[nH]cc1-c1ccccc1", "35 mm"),
    ("O=C(N[C@H](CO)[C@H](O)c1ccc([N+](=O)[O-])cc1)C(Cl)Cl [CHLORAMPHENICOL]", "38 mm"),
    ("O=C(Nc1nc(-c2ccccc2)cs1)c1c[nH]cc1-c1ccccc1", "22 mm"),
    ("Cc1ccc(-c2csc(NC(=O)c3n[nH]cc3-c3ccccc3)n2)cc1", "13 mm"),
    ("Cc1ccc(-c2csc(NC(=O)C3=NNCC3c3ccccc3)n2)cc1 (stereo unspecified)", "18 mm"),
    ("O=C(Nc1nc(-c2ccc(Cl)cc2)cs1)c1n[nH]cc1-c1ccccc1", "31 mm"),
    ("O=C(Nc1nc(-c2ccc(Cl)cc2)c[nH]1)c1c[nH]cc1-c1ccccc1", "33 mm"),
    ("O=C(Nc1nc(-c2ccccc2)cs1)c1n[nH]cc1-c1ccccc1", "14 mm"),
]

Fill blank: measured zone of inhibition at 100 µg/disc of the molecule O=C(Nc1nc(-c2ccc(Cl)cc2)c[nH]1)C1=NNCC1c1ccccc1 (stereo unspecified) is ____.
27 mm

Fill blank: measured zone of inhibition at 100 µg/disc of the molecule Cc1ccc(-c2c[nH]c(NC(=O)/C=C/c3ccccc3)n2)cc1 is ____.
23 mm

Fill blank: measured zone of inhibition at 100 µg/disc of the molecule Cc1ccc(-c2c[nH]c(NC(=O)c3n[nH]cc3-c3ccccc3)n2)cc1 is ____.
12 mm

Fill blank: measured zone of inhibition at 100 µg/disc of the molecule O=C(Nc1nc(-c2ccc(Cl)cc2)co1)C1=NNCC1c1ccccc1 (stereo unspecified) is ____.
20 mm

Fill blank: measured zone of inhibition at 100 µg/disc of the molecule Cc1ccc(-c2csc(NC(=O)c3c[nH]cc3-c3ccccc3)n2)cc1 is ____.
21 mm

Fill blank: measured zone of inhibition at 100 µg/disc of the molecule O=C(/C=C/c1ccccc1)Nc1nc(-c2ccccc2)c[nH]1 is ____.
24 mm

Fill blank: measured zone of inhibition at 100 µg/disc of the molecule O=C(Nc1nc(-c2ccccc2)c[nH]1)C1=NNCC1c1ccccc1 (stereo unspecified) is ____.
17 mm

Fill blank: measured zone of inhibition at 100 µg/disc of the molecule O=C(Nc1nc(-c2ccccc2)c[nH]1)c1n[nH]cc1-c1ccccc1 is ____.
13 mm

Fill blank: measured zone of inhibition at 100 µg/disc of the molecule O=C(Nc1nc(-c2ccc(Cl)cc2)cs1)c1c[nH]cc1-c1ccccc1 is ____.
29 mm

Fill blank: measured zone of inhibition at 100 µg/disc of the molecule O=C(Nc1nc(-c2ccc(Cl)cc2)cs1)C1=NNCC1c1ccccc1 (stereo unspecified) is ____.
26 mm

Fill blank: measured zone of inhibition at 100 µg/disc of the molecule O=C(Nc1nc(-c2ccccc2)co1)c1n[nH]cc1-c1ccccc1 is ____.
15 mm

Fill blank: measured zone of inhibition at 100 µg/disc of the molecule O=C(/C=C/c1ccccc1)Nc1nc(-c2ccc(Cl)cc2)cs1 is ____.
29 mm

Fill blank: measured zone of inhibition at 100 µg/disc of the molecule O=C(/C=C/c1ccccc1)Nc1nc(-c2ccccc2)cs1 is ____.
26 mm

Fill blank: measured zone of inhibition at 100 µg/disc of the molecule O=C(/C=C/c1ccccc1)Nc1nc(-c2ccccc2)co1 is ____.
16 mm

Fill blank: measured zone of inhibition at 100 µg/disc of the molecule O=C(/C=C/c1ccccc1)Nc1nc(-c2ccc(Cl)cc2)c[nH]1 is ____.
38 mm

Fill blank: measured zone of inhibition at 100 µg/disc of the molecule O=C(Nc1nc(-c2ccccc2)c[nH]1)c1c[nH]cc1-c1ccccc1 is ____.
20 mm

From: ChEMBL document CHEMBL2146447
